- ASSAY TEXT: protein stability index of a GFP-peptide fusion (GPS, HEK-293T) (PSI 1-6); higher = more stable;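 also: 24-mer peptide tiles fused after GFP, lentivirally expressed, FACS-sorted into six equal bins by GFP/DsRed ratio, decoded by Illumina sequencing, PSI is the read-weighted mean bin number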
- EXPERIMENTAL CONTEXT: treatment: MLN4924 1 uM, 8 h; c terminus: a fixed tail appended
MEASUREMENT KIND: protein stability index
Enter the number alone.

Worked cases, protein stability index given:
SEQUENCE RECORD	protein stability index
SIMEMQAMEVNTSASEILYSAPPG [NFE2L1]	3.94
QICGTHRQTKKMFCDMDKSLLCLL [TRIM43]	2.18
SQDVSDCYLELFPAHLYFQAHGSE [PLEKHN1]	2.81
DHGCEQLCLNTEDSFVCQCSEGFL [MATN2]	4.06
FKSLFGSIGDIESCKLVRDKITGQ [ELAVL3]	2.56

Prompt: Fill in the blank: the reported protein stability index of AELHAHGPAAFVDYFERNWEPRRD [ZSWIM9] is ____.
Completion: 4.07

Prompt: Fill in the blank: the reported protein stability index of LMPGMPPGMPPPVPRPGIPPMTQA [ZNF207] is ____.
Completion: 4.2

Prompt: Fill in the blank: the reported protein stability index of DVPNRLVDNIDMIDGDGDDMERFM [BEX5] is ____.
Completion: 5.06

Prompt: Fill in the blank: the reported protein stability index of LAAAVVQEHSNSVGGQDTGATWRT [C18orf25] is ____.
Completion: 4.18

Prompt: Fill in the blank: the reported protein stability index of FPTDAPYPTTLGKDRECQSQSLAL [ZNF8] is ____.
Completion: 4.05

Prompt: Fill in the blank: the reported protein stability index of RSRREQFSRAPVSALPLAPNHLGG [STX5] is ____.
Completion: 3.77

Prompt: Fill in the blank: the reported protein stability index of EAPALGGGEYQEPGGNVKGVWAPP [BEX5] is ____.
Completion: 4.71

Prompt: Fill in the blank: the reported protein stability index of EVQDLLEGCELPDLPSSLLLPEDM [SMG5] is ____.
Completion: 4.67

Prompt: Fill in the blank: the reported protein stability index of IKKKGWRRSSLVITTKIFWGGKAE [KCNAB2] is ____.
Completion: 2.75

Prompt: Fill in the blank: the reported protein stability index of YTKLPSSLQSTGKCLLYCNGVLEP [SLC25A39] is ____.
Completion: 2.23

Prompt: Fill in the blank: the reported protein stability index of LLTVTATDRDEGANGEVTYSFRKL [PCDHGA10] is ____.
Completion: 4.15

* * *

- ASSAY TEXT: protein stability index of a GFP-peptide fusion (GPS, HEK-293T) (PSI 1-6); higher = more stable
- EXPERIMENTAL CONTEXT: treatment: DMSO; c terminus: a fixed tail appended
MEASUREMENT KIND: protein stability index
Enter the number alone.

Worked cases, protein stability index given:
SEQUENCE RECORD	protein stability index
QGEICLCTSRIFVQKSIYSEFLKR [ALDH8A1]	2.29
KLRLFDTPHTPKSLLSKARGIDSS [WEE1]	3.19
QDDLTVVLNEEGICTQKCALNWTD [VPS39]	4.04
RIYRMIKLGLGIDEDEVAAEEPNA [HSP90AB1]	2.95

Prompt: Fill in the blank: the reported protein stability index of GGCGGPRAWSQCGGGGLRAWSQRS [CPOX] is ____.
Completion: 2.73

Prompt: Fill in the blank: the reported protein stability index of ANPYWTSRGSSVSMSGGRFRCPTC [TRIM63] is ____.
Completion: 2.65

Prompt: Fill in the blank: the reported protein stability index of GAIAVFVYASDKEWIRFDQSNVLC [PTGFR] is ____.
Completion: 3.02
